Biological target: human estrogen receptor β (Homo sapiens)
Sequence (Q92731 whole entry): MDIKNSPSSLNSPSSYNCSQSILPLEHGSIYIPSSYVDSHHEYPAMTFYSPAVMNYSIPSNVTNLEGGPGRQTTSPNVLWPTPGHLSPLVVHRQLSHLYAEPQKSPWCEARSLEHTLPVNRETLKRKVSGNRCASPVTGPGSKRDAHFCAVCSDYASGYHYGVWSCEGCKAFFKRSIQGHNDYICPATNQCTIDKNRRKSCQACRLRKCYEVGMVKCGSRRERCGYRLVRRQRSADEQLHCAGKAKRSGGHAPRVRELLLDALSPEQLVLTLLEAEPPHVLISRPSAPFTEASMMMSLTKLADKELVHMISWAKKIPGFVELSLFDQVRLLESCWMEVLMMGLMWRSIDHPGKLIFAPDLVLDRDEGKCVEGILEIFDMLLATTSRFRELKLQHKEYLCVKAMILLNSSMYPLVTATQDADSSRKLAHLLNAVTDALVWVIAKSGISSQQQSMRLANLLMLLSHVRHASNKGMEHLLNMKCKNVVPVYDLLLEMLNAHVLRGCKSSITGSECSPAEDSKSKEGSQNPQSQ
pIC50: −log10 of the molar value.
Readout Label: pIC50

                                   molecule  reported_result
0  C[C@]12CCC3c4ccc5[nH]ccc5c4CCC3C1CC[C@@H]2O (some centres unmarked) [Compound 6]             7.04
1  C[C@]12CCC3c4ccc5[nH]ccc5c4CCC3C1CCC2=O (some centres unmarked) [Compound 4]             6.21
